Assay: chemical genetic growth profiling, strain panel (AID 1159580);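 further: tested at 20 µM; growth read once vehicle control cultures reached saturation at 30 °C; 1 = growth at the plate median or of vehicle wells; lower values mean less growth of the strain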
Settings: S. cerevisiae deletion strains, growth OD, locus YNL067W, strain RPL9B, hits give low values
Screen size: about 5,500 compounds; about 2,000 (36%) were called active. Inconclusive results (about 18%) are left out. The list shows a part of the results.
Kindly apply the following: condition met if normalized growth is less than 1, condition not met in every other case.

molecule="CC1C[C@H]2CC(=O)[C@H]3CCCN4CCC[C@H]2[C@]34C1 (stereo partly specified)" label="condition not met"
molecule="CCC(C)c1cnc(CC(C)C)c(=O)n1O (stereo unspecified)" label="condition met"
molecule=CC(=O)N[C@@H](CS)C(=O)O label="condition not met"
molecule=COc1c(OC)c2occc2c2oc(=O)ccc12 label="condition met"
molecule=OC(Cn1cncn1)(Cn1cncn1)c1ccc(F)cc1F label="condition not met"
molecule=CC(C)NC[C@H](O)COc1cccc2ccccc12 label="condition not met"
molecule=O=c1cc[nH]c(=S)[nH]1 label="condition not met"

---

normalized growth overview
Assay: chemical genetic growth profiling, strain panel (AID 1159580);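 further: tested at 20 µM; growth read once vehicle control cultures reached saturation at 30 °C; 1 = growth at the plate median or of vehicle wells; lower values mean less growth of the strain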
Details: S. cerevisiae deletion strains, growth OD, locus YBL061C, strain skt5, hits give low values
Screen size: about 5,500 compounds; about 2,000 (36%) were called active. Another 18% or so got no clear call; they are omitted. The list shows a part of the results.
observation_type: normalized growth

molecule=Nc1nc2ncc(=O)[nH]c2c(=O)[nH]1 observation_type="normalized growth" endpoint_result=0.973
molecule="C[N+]1(C)C2CC(OC(=O)[C@@H](CO)c3ccccc3)CC1C1OC12 (stereo partly drawn)" observation_type="normalized growth" endpoint_result=0.98
molecule=CC1(C)NC(=O)N(c2ccc([N+](=O)[O-])c(C(F)(F)F)c2)C1=O observation_type="normalized growth" endpoint_result=0.98
molecule=CC(C)NNC(=O)c1ccncc1 observation_type="normalized growth" endpoint_result=1.01
molecule="C=CCCCCCCCCCCCC(O)CC(O)COC(C)=O (stereo not drawn) (tested in a mixture with another compound)" observation_type="normalized growth" endpoint_result=0.95
molecule=C=C1C(=O)O[C@@H]2C[C@@]3(C)CCC[C@H](C)C3=C[C@H]12 observation_type="normalized growth" endpoint_result=0.901
molecule=Cc1coc2c1C(=O)C(=O)c1c-2ccc2c1CCCC2(C)C observation_type="normalized growth" endpoint_result=0.968
molecule=CCN(CC)C(=O)c1cccc(C)c1 observation_type="normalized growth" endpoint_result=1.04
molecule="C=CC(N)CCC(=O)O (stereo not drawn)" observation_type="normalized growth" endpoint_result=0.976
molecule=Cc1ccc(Cl)c(Nc2ccccc2C(=O)O)c1Cl observation_type="normalized growth" endpoint_result=0.884
molecule="C#CCCCCCCCCCCCC(=O)CC(O)COC(C)=O (stereo not drawn)" observation_type="normalized growth" endpoint_result=0.977
molecule="Nc1ccn(C2O[C@H](CO)[C@@H](O)[C@@H]2O)c(=O)n1 (stereo partly drawn)" observation_type="normalized growth" endpoint_result=1.01
molecule="COC(=O)[C@@H]1OC(=O)[C@H]2O[C@@]23[C@@]1(C)CCC1[C@@]2(C)CCC(=O)C(C)(C)C2C[C@@H](OC(C)=O)[C@]13C (stereo partly drawn)" observation_type="normalized growth" endpoint_result=0.994
molecule=O=C1C=C2C=C[C@@H]3C[C@@]2(O1)[C@H]1CCCCN31 observation_type="normalized growth" endpoint_result=1.01
molecule=CCOC(=O)[C@H](CCc1ccccc1)N[C@@H](C)C(=O)N1[C@H](C(=O)O)C[C@@H]2CCC[C@@H]21 observation_type="normalized growth" endpoint_result=0.984
molecule=NC(N)=NS(=O)(=O)c1ccc(N)cc1 observation_type="normalized growth" endpoint_result=0.991
molecule=CC(=O)Oc1c(C)cccc1C(=O)O observation_type="normalized growth" endpoint_result=1.01
molecule=Cc1c(Cl)cccc1Nc1ccccc1C(=O)O observation_type="normalized growth" endpoint_result=0.81
molecule="NC(CO)C(=O)NNCc1ccc(O)c(O)c1O (stereo not drawn)" observation_type="normalized growth" endpoint_result=0.999
molecule="C#CCCCCCCCCCCCC(O)CC(O)COC(C)=O (stereo not drawn)" observation_type="normalized growth" endpoint_result=0.841
molecule="CC(C)C(C)/C=C/C(C)C1CCC2C3=CC=C4CC(O)CCC4(C)C3CCC21C (stereo not drawn)" observation_type="normalized growth" endpoint_result=0.996
molecule=CC(C)C(=O)Nc1ccc([N+](=O)[O-])c(C(F)(F)F)c1 observation_type="normalized growth" endpoint_result=1.02
molecule=O=C(O)c1ccccc1-c1c2cc(Br)c(=O)cc-2oc2[c]([Hg])c(O)c(Br)cc12 observation_type="normalized growth" endpoint_result=1.04

---

Assay: chemical genetic growth profiling, strain panel (AID 1159580);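 further: tested at 20 µM; growth read once vehicle control cultures reached saturation at 30 °C; 1 = growth at the plate median or of vehicle wells; lower values mean less growth of the strain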
Conditions: S. cerevisiae deletion strains, growth OD, locus YML120C, strain ndi1, hits give low values
Hit rate of the full screen: of about 5,500 compounds, about 2,000 (36%) were called active. Another 18% or so got no clear call; they are omitted. The list shows a part of the results.
observation_type: normalized growth

compound=CCC(C)(C)C(=O)O[C@H]1C[C@@H](C)C=C2C=C[C@H](C)[C@H](CC[C@@H]3C[C@@H](O)CC(=O)O3)[C@H]21 endpoint_result=0.987
compound=COc1cc([C@@H]2c3cc4c(c(O)c3C[C@H]3COC(=O)[C@@H]32)OCO4)cc(OC)c1OC endpoint_result=0.998
compound="CO[C@@]1(NC(=O)CSCC#N)C(=O)N2C(C(=O)O)=C(CSc3nnnn3C)CSC21 (some centres not stated)" endpoint_result=0.988
compound="CC(C)(Oc1ccc(C2CC2(Cl)Cl)cc1)C(=O)O (configuration not stated)" endpoint_result=0.985
compound="NC(CO)C(=O)NNCc1ccc(O)c(O)c1O (configuration not stated)" endpoint_result=1.01
compound="C=C1CCC2C(CC2(C)C)C(=O)CCC1O (configuration not stated)" endpoint_result=0.965
compound="CC(C(=O)O)c1ccc(C(=O)c2cccs2)cc1 (configuration not stated)" endpoint_result=1
compound=CC(C)NNC(=O)c1ccncc1 endpoint_result=0.999
compound=CC[C@H](C)C(=O)O[C@H]1C[C@@H](C)C=C2C=C[C@H](C)[C@H](CC[C@@H]3C[C@@H](O)CC(=O)O3)[C@H]21 endpoint_result=1.01
compound="C[C@@H]1C(=O)OC2[C@H](O)C34[C@@H]5OC(=O)[C@@]3(O[C@@H]3OC(=O)[C@H](O)[C@@]34[C@H](C(C)(C)C)[C@H]5O)[C@]21O (some centres not stated)" endpoint_result=0.975
compound=Cn1c(=O)c2[nH]cnc2n(C)c1=O endpoint_result=1.02
compound=COC(=O)C1=CCCN(C)C1 endpoint_result=1
compound="C#CCCCCCCCCCCCC(O)CC(O)COC(C)=O (configuration not stated)" endpoint_result=0.171
compound="COC(=O)C(C)c1ccc(C(=O)c2cccs2)cc1 (configuration not stated)" endpoint_result=1.01
compound=CC1(C)NC(=O)N(c2ccc([N+](=O)[O-])c(C(F)(F)F)c2)C1=O endpoint_result=0.991
compound="C=C1CCC(C2CC(=O)OC2=O)C(=O)CCC2C1CC2(C)C (configuration not stated)" endpoint_result=1
compound="CC(C)COCC(CN(Cc1ccccc1)c1ccccc1)N1CCCC1 (configuration not stated)" endpoint_result=1.05
compound=COc1ccc2c(c1)O[C@H]1c3ccc(OC)cc3OC[C@@H]21 endpoint_result=1.02
compound="CC(C)NCC(O)COc1cccc2ccccc12 (configuration not stated)" endpoint_result=1.01
compound=Nc1nc2ncc(=O)[nH]c2c(=O)[nH]1 endpoint_result=0.972
compound="CCC(C)C(=O)O[C@H]1C[C@H](O)C=C2C=C[C@H](C)[C@H](CC[C@@H](O)C[C@@H](O)CC(=O)O)C21 (some centres not stated)" endpoint_result=1.02
compound=COc1ccc([C@H]2Oc3cc(OC)cc(OC)c3C[C@H]2O)cc1 endpoint_result=1.01

---

Test: chemical genetic growth profiling, strain panel (AID 1159580);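 further: tested at 20 µM; growth read once vehicle control cultures reached saturation at 30 °C; 1 = growth at the plate median or of vehicle wells; lower values mean less growth of the strain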
Conditions: S. cerevisiae deletion strains, growth OD, locus YLR102C, strain apc9, hits give low values
Screen size: about 5,500 compounds; about 2,000 (36%) were called active. About 18% were inconclusive and are not listed. The list shows a part of the results.
Consider the following molecules and their measured normalized growth readings.
observation_type: normalized growth

molecule="CC1OC1P(=O)(O)O (stereo not given)" observation_type="normalized growth" endpoint_result=0.99
molecule=O=c1cc[nH]c(=S)[nH]1 observation_type="normalized growth" endpoint_result=0.992
molecule=COc1c2ccoc2c(OC)c2oc(=O)ccc12 observation_type="normalized growth" endpoint_result=0.979
molecule="CCCC(=O)O[C@]1(C(=O)CO)CCC2[C@@H]3CCC4=CC(=O)CC[C@]4(C)C3[C@@H](O)C[C@@]21C (stereo not given in full)" observation_type="normalized growth" endpoint_result=0.985
molecule=CCOC(=O)[C@H](CCc1ccccc1)N[C@@H](C)C(=O)N1[C@H](C(=O)O)C[C@@H]2CCC[C@@H]21 observation_type="normalized growth" endpoint_result=1.02
molecule="CC1(C)O[C@@H]2CC3C4CCC5=CC(=O)CCC5(C)C4(F)C(O)CC3(C)[C@]2(C(=O)CCl)O1 (stereo not given in full)" observation_type="normalized growth" endpoint_result=0.995
molecule=COc1cc(-c2coc3cc(OCc4ccccc4)c(OC)c(O)c3c2=O)cc(O)c1OC observation_type="normalized growth" endpoint_result=0.998
molecule=COc1cc(-c2coc3cc(OCc4ccccc4)c(OC)c(O)c3c2=O)cc(OCc2ccccc2)c1OC observation_type="normalized growth" endpoint_result=0.98
molecule="CO[C@@]1(NC(=O)CSCC#N)C(=O)N2C(C(=O)O)=C(CSc3nnnn3C)CSC21 (stereo not given in full)" observation_type="normalized growth" endpoint_result=1.04
molecule="CCCNC1CCc2nc(N)sc2C1 (stereo not given)" observation_type="normalized growth" endpoint_result=0.997
